molecular target: Tyrosine-protein kinase ABL2 (Homo sapiens, UniProt P42684); also: in the data inactive means no Kd found up to 30 µM
Sequence (P42684 whole entry): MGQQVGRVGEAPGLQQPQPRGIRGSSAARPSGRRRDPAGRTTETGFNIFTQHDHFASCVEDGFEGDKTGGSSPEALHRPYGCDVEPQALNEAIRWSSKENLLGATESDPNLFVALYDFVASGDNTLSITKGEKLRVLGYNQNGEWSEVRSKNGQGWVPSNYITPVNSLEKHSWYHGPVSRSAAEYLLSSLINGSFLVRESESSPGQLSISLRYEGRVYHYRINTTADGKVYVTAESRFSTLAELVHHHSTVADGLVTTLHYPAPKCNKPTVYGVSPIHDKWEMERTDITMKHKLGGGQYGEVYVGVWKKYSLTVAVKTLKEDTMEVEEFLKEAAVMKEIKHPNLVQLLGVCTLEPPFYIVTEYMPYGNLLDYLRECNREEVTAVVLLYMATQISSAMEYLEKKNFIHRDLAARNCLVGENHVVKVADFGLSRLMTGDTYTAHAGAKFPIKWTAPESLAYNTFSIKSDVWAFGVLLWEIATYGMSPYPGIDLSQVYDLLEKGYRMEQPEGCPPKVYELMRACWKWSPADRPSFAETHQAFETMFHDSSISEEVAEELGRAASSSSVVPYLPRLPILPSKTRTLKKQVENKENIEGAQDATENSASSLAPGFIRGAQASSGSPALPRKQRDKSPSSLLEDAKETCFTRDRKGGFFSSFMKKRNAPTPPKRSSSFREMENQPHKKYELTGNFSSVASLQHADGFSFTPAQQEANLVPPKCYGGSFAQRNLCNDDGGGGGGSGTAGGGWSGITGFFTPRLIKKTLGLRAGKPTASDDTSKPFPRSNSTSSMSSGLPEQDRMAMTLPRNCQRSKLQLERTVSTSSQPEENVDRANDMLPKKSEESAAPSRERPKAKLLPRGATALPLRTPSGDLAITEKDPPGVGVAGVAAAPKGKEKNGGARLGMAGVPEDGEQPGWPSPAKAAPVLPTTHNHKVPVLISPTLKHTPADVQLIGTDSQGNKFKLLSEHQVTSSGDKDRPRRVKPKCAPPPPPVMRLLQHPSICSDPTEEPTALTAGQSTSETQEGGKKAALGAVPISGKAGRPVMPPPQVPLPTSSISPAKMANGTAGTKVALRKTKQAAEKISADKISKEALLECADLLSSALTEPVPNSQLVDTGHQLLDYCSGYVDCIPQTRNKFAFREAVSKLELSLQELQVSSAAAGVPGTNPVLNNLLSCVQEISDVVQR
Calls of active or inactive are those of the source.
Output constraint: value belongs to active, inactive

Solved cases below.
Cc1cc(Nc2ncnc3ccc(NC4=NC(C)(C)CO4)cc23)ccc1Oc1ccn2ncnc2c1 = inactive
C=CC(=O)Nc1cc2c(Nc3ccc(F)c(Cl)c3)ncnc2cc1C#CC(C)(C)N1CCN(C)CC1 [AV-412 FREE BASE] = inactive
CNC(=O)c1cccc2cc(Oc3ccnc4cc(OCC5(N)CC5)c(OC)cc34)ccc12 = inactive
CC(=O)NCC(=O)N1[C@@H]2CC[C@H]1c1ccc(Nc3ncc(C(F)(F)F)c(NC4CCC4)n3)cc12 = inactive
O=C(Nc1nc2cccc(-c3ccc(CN4CCS(=O)(=O)CC4)cc3)n2n1)C1CC1 = inactive
CCS(=O)(=O)c1cccc(-c2cc(C(=O)NC3CCN(C)CC3)c(C)c3[nH]c4ncc(C)cc4c23)c1 = active
COc1ncc(-c2ccc3nccc(-c4ccnnc4)c3c2)cc1NS(=O)(=O)c1ccc(F)cc1F = inactive
CO[C@H]1C[C@@H]2CC[C@@H](C)[C@@](O)(O2)C(=O)C(=O)N2CCCC[C@H]2C(=O)O[C@H]([C@H](C)C[C@@H]2CC[C@@H](O)[C@H](OC)C2)CC(=O)[C@H](C)/C=C(\C)[C@@H](O)[C@@H](OC)C(=O)[C@H](C)C[C@H](C)/C=C/C=C/C=C/1C = inactive

Which result was noted for this compound in the test: O=C1NC(=O)[C@@H](c2cn3c4c(cccc24)CCC3)[C@@H]1c1c[nH]c2ccccc12 [TIVANTINIB] inactive

Which result was noted for this compound in the test: N#CC1(c2ccc(NC(=O)c3cccnc3NCc3ccncc3)cc2)CCCC1 inactive

Which result was noted for this compound in the test: O=C(Nc1cc(C(F)(F)F)cc(C(F)(F)F)c1)c1cc(Cl)ccc1O inactive

---

target: Breakpoint cluster region protein (Homo sapiens); also: in the data inactive means no Kd found up to 30 µM
Sequence (P11274 whole entry): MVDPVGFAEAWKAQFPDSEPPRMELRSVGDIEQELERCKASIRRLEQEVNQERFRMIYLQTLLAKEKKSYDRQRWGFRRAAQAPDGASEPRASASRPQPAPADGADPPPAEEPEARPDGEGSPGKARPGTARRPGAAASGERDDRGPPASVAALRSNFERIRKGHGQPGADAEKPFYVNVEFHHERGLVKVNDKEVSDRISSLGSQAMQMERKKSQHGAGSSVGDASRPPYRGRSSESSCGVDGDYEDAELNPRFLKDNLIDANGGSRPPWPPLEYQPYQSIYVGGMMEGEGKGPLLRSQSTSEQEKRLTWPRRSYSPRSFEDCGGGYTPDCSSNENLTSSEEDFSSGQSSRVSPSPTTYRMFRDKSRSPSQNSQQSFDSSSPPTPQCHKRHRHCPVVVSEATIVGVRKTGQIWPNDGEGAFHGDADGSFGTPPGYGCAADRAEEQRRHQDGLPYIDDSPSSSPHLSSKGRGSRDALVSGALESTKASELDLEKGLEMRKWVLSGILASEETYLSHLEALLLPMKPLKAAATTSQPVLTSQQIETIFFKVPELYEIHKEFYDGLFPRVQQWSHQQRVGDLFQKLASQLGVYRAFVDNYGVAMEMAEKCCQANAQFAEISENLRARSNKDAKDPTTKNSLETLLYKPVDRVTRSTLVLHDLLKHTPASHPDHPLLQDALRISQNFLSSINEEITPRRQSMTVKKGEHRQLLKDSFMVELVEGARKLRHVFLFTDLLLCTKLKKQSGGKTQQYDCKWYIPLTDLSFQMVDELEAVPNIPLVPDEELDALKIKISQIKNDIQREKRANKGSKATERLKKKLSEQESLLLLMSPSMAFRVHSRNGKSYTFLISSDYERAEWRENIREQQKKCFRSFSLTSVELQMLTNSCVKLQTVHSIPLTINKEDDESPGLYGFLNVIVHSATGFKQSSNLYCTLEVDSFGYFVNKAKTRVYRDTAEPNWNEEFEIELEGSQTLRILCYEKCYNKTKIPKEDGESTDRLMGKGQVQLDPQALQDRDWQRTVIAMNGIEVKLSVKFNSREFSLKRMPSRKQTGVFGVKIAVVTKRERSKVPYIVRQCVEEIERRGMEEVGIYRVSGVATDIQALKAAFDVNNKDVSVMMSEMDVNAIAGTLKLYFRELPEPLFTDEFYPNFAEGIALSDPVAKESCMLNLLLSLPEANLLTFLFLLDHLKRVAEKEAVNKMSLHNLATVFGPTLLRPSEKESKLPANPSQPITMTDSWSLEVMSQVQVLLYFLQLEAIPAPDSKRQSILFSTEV
Where a name gives a salt, the structure may show the parent alone. Active and inactive are the calls of the source.
Output constraint: value belongs to Yes = active, No = inactive

Solved cases below.
CO[C@H]1C[C@@H]2CC[C@@H](C)[C@@](O)(O2)C(=O)C(=O)N2CCCC[C@H]2C(=O)O[C@H]([C@H](C)C[C@@H]2CC[C@@H](O)[C@H](OC)C2)CC(=O)[C@H](C)/C=C(\C)[C@@H](O)[C@@H](OC)C(=O)[C@H](C)C[C@H](C)/C=C/C=C/C=C/1C [SIROLIMUS] = No
CCS(=O)(=O)N1CCN(c2ccc(Nc3ncc(C(N)=O)c(NC4CC4)n3)cc2)CC1 [Cerdulatinib Hydrochloride] = No

Which result was noted for this molecule in the test: CNC(=O)c1nn(C)c2c1C(C)(C)Cc1cnc(Nc3ccc(N4CCN(C)CC4)cc3)nc1-2 [MILCICLIB] Yes

Which result was noted for this molecule in the test: CC(=O)c1cnc2ccc(-c3cc(Cl)c(O)c(Cl)c3)nc2c1N[C@H]1CC[C@H](CN(C)C)CC1 Yes

Which result was noted for this molecule in the test: N#CC1(c2ccc(NC(=O)c3cccnc3NCc3ccncc3)cc2)CCCC1 [RIVOCERANIB] No

Which result was noted for this molecule in the test: Cc1csc(-c2nnc(Nc3ccc(Oc4ncccc4-c4ccnc(N)n4)cc3)c3ccccc23)c1 [AMG-900] Yes

Which result was noted for this molecule in the test: COCc1c(-c2ccc(NC(=O)Nc3cc(C(F)(F)F)ccc3F)c(F)c2)c2c(N)ncnn2c1CN1CCOCC1 Yes

Which result was noted for this molecule in the test: Cn1cc(C2=C(c3cn(C4CCN(Cc5ccccn5)CC4)c4ccccc34)C(=O)NC2=O)c2ccccc21 [ENZASTAURIN] No

---

Endpoint: Kd. System: Tyrosine-protein kinase CSK (Homo sapiens). Items follow. Also: in the data inactive means no Kd found up to 30 µM.
Sequence (P41240 whole entry): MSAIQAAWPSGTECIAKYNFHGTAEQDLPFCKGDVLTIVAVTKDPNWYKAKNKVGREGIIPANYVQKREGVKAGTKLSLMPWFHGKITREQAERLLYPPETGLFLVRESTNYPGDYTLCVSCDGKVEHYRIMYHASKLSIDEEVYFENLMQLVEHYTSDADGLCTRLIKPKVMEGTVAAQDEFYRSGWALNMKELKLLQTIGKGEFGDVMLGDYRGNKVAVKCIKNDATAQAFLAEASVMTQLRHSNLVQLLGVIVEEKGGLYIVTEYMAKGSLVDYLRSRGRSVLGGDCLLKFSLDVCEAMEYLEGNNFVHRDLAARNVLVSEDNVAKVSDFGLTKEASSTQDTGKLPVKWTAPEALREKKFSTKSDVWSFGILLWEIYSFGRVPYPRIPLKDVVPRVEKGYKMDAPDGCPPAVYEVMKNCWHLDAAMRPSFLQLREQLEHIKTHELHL
Active and inactive are the calls of the source.

Consider the worked cases shown below.
Cc1nc2cc(-n3ncc(C(=O)c4cc5ccccc5[nH]4)c3N)ccc2[nH]1 = > 30 µM (inactive)
COc1cc2c(Nc3ccc(Cl)c(Cl)c3F)ncnc2cc1OC[C@@H]1C[C@@H]2CN(C)C[C@@H]2C1 = > 30 µM (inactive)

The record that follows has no Kd shown yet.
Name the value of Kd reported for Cn1ncc(Cl)c1-c1cc(C(=O)N[C@H](CN)Cc2ccc(F)c(F)c2)oc1Cl when tested on Tyrosine-protein kinase CSK (Homo sapiens). > 30 µM (inactive)

---

Activity calls are given as the source filed them.
Endpoint: Kd. System: Beta-adrenergic receptor kinase 1 (Homo sapiens, UniProt P25098). Items follow. Also: in the data inactive means no Kd found up to 30 µM.
Sequence (P25098 whole entry): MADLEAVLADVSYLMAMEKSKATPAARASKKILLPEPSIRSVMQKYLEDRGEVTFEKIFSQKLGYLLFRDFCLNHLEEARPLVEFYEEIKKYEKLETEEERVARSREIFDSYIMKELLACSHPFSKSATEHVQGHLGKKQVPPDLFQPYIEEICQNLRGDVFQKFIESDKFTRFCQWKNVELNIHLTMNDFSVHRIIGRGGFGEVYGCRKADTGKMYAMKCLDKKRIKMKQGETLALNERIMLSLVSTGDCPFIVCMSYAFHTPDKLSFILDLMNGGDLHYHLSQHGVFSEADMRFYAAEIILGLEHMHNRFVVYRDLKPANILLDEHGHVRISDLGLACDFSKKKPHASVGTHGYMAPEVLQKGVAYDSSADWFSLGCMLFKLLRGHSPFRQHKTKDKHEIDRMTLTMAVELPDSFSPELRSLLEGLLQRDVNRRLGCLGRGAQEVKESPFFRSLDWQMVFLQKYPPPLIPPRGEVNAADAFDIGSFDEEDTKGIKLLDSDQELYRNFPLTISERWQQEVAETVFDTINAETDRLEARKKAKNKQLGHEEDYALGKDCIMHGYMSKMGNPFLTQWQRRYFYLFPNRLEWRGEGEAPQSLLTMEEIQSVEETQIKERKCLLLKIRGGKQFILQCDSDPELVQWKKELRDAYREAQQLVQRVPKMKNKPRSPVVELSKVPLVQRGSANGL

Consider the worked cases shown below.
N#CC1(c2ccc(NC(=O)c3cccnc3NCc3ccncc3)cc2)CCCC1 = > 30 µM (inactive)
C[C@@H](N)c1ccc(C(=O)Nc2ccnc3[nH]ccc23)cc1 = > 30 µM (inactive)
CCOc1cc2ncc(C#N)c(Nc3ccc(F)c(Cl)c3)c2cc1NC(=O)/C=C/CN(C)C = > 30 µM (inactive)

Query Kd for Cc1nc2cc(-n3ncc(C(=O)c4cc5ccccc5[nH]4)c3N)ccc2[nH]1 > 30 µM (inactive)

Query Kd for COCc1c(-c2ccc(NC(=O)Nc3cc(C(F)(F)F)ccc3F)c(F)c2)c2c(N)ncnn2c1CN1CCOCC1 > 30 µM (inactive)

Query Kd for CCn1c(C(=O)N(C2CC2)C2CC2)cc2c3c(ncn3C)c(Nc3cc(C)n(C)n3)nc21 > 30 µM (inactive)

Query Kd for Cc1nc2cc(-c3nn(C(C)C)c4ncnc(N)c34)ccc2o1 > 30 µM (inactive)

Query Kd for O=C(Nc1cc(C(F)(F)F)cc(C(F)(F)F)c1)c1cc(Cl)ccc1O > 30 µM (inactive)

---

molecular target: MAP/microtubule affinity-regulating kinase 3 (Homo sapiens, UniProt P27448); also: in the data inactive means no Kd found up to 30 µM
Sequence (P27448 whole entry): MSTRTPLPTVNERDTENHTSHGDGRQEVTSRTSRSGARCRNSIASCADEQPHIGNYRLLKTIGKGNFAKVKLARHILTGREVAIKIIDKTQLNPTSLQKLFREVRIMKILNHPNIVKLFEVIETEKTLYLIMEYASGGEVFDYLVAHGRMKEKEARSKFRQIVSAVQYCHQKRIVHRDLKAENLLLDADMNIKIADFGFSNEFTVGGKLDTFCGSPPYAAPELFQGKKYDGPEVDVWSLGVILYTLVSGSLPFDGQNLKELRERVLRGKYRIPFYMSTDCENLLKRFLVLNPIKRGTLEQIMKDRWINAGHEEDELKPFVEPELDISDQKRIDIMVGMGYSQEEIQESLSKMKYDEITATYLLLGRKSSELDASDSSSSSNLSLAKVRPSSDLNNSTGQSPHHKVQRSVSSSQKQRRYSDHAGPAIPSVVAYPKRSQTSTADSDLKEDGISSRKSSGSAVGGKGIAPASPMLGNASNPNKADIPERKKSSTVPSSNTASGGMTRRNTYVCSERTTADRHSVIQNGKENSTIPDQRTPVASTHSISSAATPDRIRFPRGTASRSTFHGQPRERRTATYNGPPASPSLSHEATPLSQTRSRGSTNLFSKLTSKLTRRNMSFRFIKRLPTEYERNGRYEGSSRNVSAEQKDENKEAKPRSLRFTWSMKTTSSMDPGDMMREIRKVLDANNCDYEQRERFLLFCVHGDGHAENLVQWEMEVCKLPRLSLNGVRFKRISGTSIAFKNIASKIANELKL
Calls of active or inactive are those of the source.
Output constraint: value belongs to active, inactive

Solved cases below.
Cc1cccc(-c2nn3c(c2-c2ccnc4ccc(C(N)=O)cc24)CCC3)n1 = inactive
Cc1csc(-c2nnc(Nc3ccc(Oc4ncccc4-c4ccnc(N)n4)cc3)c3ccccc23)c1 = inactive
Cc1cc(C(=O)NOCCO)c(Nc2ccc(I)cc2F)n(C)c1=O = inactive
CNC(=O)c1cccc2cc(Oc3ccnc4cc(OCC5(N)CC5)c(OC)cc34)ccc12 = inactive
CC(C)c1cc(CNc2nc(Nc3cc(C4CC4)[nH]n3)cc(N3CCN(C)CC3)n2)on1 = active

Which result was noted for this compound in the test: CO[C@H]1C[C@@H]2CC[C@@H](C)[C@@](O)(O2)C(=O)C(=O)N2CCCC[C@H]2C(=O)O[C@H]([C@H](C)C[C@@H]2CC[C@@H](OP(C)(C)=O)[C@H](OC)C2)CC(=O)[C@H](C)/C=C(\C)[C@@H](O)[C@@H](OC)C(=O)[C@H](C)C[C@H](C)/C=C/C=C/C=C/1C inactive

Which result was noted for this compound in the test: COc1ncc(-c2ccc3nccc(-c4ccnnc4)c3c2)cc1NS(=O)(=O)c1ccc(F)cc1F inactive

Which result was noted for this compound in the test: C#Cc1cccc(Nc2ncnc3cc(OC)c(OCCCCCCC(=O)NO)cc23)c1 inactive

Which result was noted for this compound in the test: N#CC1(c2ccc(NC(=O)c3cccnc3NCc3ccncc3)cc2)CCCC1 inactive

---

Activity calls are given as the source filed them.
Endpoint: Kd. System: Pyridoxal kinase (Homo sapiens, UniProt O00764). Items follow. Also: in the data inactive means no Kd found up to 30 µM.
Sequence (O00764 whole entry): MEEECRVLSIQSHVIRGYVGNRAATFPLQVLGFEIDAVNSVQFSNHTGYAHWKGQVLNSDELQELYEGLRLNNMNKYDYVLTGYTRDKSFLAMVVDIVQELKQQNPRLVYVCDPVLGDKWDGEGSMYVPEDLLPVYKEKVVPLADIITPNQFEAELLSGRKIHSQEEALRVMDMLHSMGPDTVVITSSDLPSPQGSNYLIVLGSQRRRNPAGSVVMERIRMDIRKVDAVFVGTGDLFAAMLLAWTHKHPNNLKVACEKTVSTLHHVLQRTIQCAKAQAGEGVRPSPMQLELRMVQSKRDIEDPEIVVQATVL

COc1ncc(-c2ccc3nccc(-c4ccnnc4)c3c2)cc1NS(=O)(=O)c1ccc(F)cc1F [OMIPALISIB] = > 30 µM (inactive)
CO[C@H]1C[C@@H]2CC[C@@H](C)[C@@](O)(O2)C(=O)C(=O)N2CCCC[C@H]2C(=O)O[C@H]([C@H](C)C[C@@H]2CC[C@@H](OC(=O)C(C)(CO)CO)[C@H](OC)C2)CC(=O)[C@H](C)/C=C(\C)[C@@H](O)[C@@H](OC)C(=O)[C@H](C)C[C@H](C)/C=C/C=C/C=C/1C [TEMSIROLIMUS] = > 30 µM (inactive)

The record that follows has no Kd shown yet.
Name the value of Kd reported for O=C(Cc1ccc(-c2ccc(OCCN3CCOCC3)cc2)cn1)NCc1ccccc1 [TIRBANIBULIN] when tested on Pyridoxal kinase (Homo sapiens, UniProt O00764). > 30 µM (inactive)

---

Target chain: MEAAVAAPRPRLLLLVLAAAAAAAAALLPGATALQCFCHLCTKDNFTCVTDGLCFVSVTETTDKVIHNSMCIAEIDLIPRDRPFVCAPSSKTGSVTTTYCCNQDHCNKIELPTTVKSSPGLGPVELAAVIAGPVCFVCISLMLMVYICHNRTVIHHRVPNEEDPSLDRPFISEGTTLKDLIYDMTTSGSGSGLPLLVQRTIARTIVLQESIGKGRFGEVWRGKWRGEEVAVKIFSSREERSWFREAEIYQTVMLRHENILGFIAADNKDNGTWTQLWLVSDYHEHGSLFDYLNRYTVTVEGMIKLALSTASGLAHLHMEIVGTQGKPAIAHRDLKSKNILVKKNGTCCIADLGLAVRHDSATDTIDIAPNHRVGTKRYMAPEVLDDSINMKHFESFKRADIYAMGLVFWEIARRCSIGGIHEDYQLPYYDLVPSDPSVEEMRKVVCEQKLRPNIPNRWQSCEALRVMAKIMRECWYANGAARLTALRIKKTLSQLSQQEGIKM
Activity calls are given as the source filed them.
Readout Label: Kd

Consider the worked cases shown below.
C[C@H]1CNCCCN1S(=O)(=O)c1cccc2cncc(F)c12 = > 30 µM (inactive)
COc1ncc(-c2ccc3nccc(-c4ccnnc4)c3c2)cc1NS(=O)(=O)c1ccc(F)cc1F = > 30 µM (inactive)
CCS(=O)(=O)c1cccc(-c2cc(C(=O)NC3CCN(C)CC3)c(C)c3[nH]c4ncc(C)cc4c23)c1 = 0.197 µM (active)
CCCCCCCCCCCCCCCCCCOP(=O)([O-])OC1CC[N+](C)(C)CC1 = > 30 µM (inactive)
CC(C)(C)c1nc(-c2cccc(NS(=O)(=O)c3c(F)cccc3F)c2F)c(-c2ccnc(N)n2)s1 = 2.38 µM (active)
CC(=O)c1cnc2ccc(-c3cc(Cl)c(O)c(Cl)c3)nc2c1N[C@H]1CC[C@H](CN(C)C)CC1 = 0.149 µM (active)
Cn1cnc2c(F)c(Nc3ccc(Br)cc3F)c(C(=O)NOCCO)cc21 = > 30 µM (inactive)

Query Kd for COc1cc2ncnc(Oc3cccc(NC(=O)Nc4cc(C(C)(C)C(F)(F)F)on4)c3)c2cc1OC > 30 µM (inactive)

Just for reference, ChEMBL document CHEMBL3991601 is where these values come from.
